Recorded logD by entry
test: Lipophilicity, n-octanol/PBS distribution coefficient logD7.4; format: physicochemical; conditions: 177Lu-labeled peptide; n-octanol/PBS (1/1), n ≥ 5
The response must contain the number and no unit.

So what does the record say about logD for CCCC[C@@H](C(=O)N[C@@H](CC(=O)O)C(=O)N[C@@H](Cc1cccc2ccccc12)C(N)=O)N(C)C(=O)[C@H](Cc1c[nH]c2ccccc12)NC(=O)CCOCCOCCOCCOCCNC(=O)CC[C@@H](NC(=O)CCOCCOCCOCCOCCOCCOCCOCCOCCNC(=O)CC[C@@H](NC(=O)[C@@H](CNC(=O)c1cc(C(=O)O)cc([Si](F)(C(C)(C)C)C(C)(C)C)c1)NC(=O)CN1CCN(CC(=O)O)CCN(CC(=O)O)CCN(CC(=O)O)CC1)C(=O)O)C(=O)O [[^nat/177Lu]Lu-DOTA-rhCCK-72, DOTA-D-Dap(SiFA-ipa)-D-γ-Glu-(PEG)7-B, metal not drawn] ?
-2.32

Ok, now CCCC[C@@H](C(=O)N[C@@H](CC(=O)O)C(=O)N[C@@H](Cc1cccc2ccccc12)C(N)=O)N(C)C(=O)[C@H](Cc1c[nH]c2ccccc12)NC(=O)CCOCCOCCOCCOCCNC(=O)CC[C@@H](NC(=O)CCOCCOCCOCCOCCOCCOCCOCCOCCOCCOCCOCCOCCNC(=O)CC[C@@H](NC(=O)[C@@H](CNC(=O)c1ccc([Si](F)(C(C)(C)C)C(C)(C)C)cc1)NC(=O)CN1CCN(CC(=O)O)CCN(CC(=O)O)CCN(CC(=O)O)CC1)C(=O)O)C(=O)O [[^nat/177Lu]Lu-DOTA-rhCCK-76, DOTA-D-Dap(p-SiFA)-D-γ-Glu-(PEG)11-B, metal not drawn]
-1.82

###

assay: Biodistribution at 24 h p.i. in AR42J tumor-bearing CB17-SCID mice; type: in vivo; conditions: both sexes, CB17-SCID, mouse, tumor/heart, 100 pmol, total radioactivity, 100 pmol, n=4, Table S3, read-out: Tumor-to-background ratio, Heart
Recorded tissue to tissue ratio at 24 h by entry
The response must contain the number and no unit.

1) CCCC[C@@H](C(=O)N[C@@H](CC(=O)O)C(=O)N[C@@H](Cc1cccc2ccccc12)C(N)=O)N(C)C(=O)[C@H](Cc1c[nH]c2ccccc12)NC(=O)CCOCCOCCOCCOCCNC(=O)CC[C@@H](NC(=O)CCOCCOCCOCCOCCOCCOCCOCCOCCNC(=O)CC[C@@H](NC(=O)[C@@H](CNC(=O)c1ccc([Si](F)(C(C)(C)C)C(C)(C)C)cc1)NC(=O)CN1CCN(CC(=O)O)CCN(CC(=O)O)CCN(CC(=O)O)CC1)C(=O)O)C(=O)O [[^nat/177Lu]Lu-DOTA-rhCCK-70, metal not drawn] ... 55.4

Here is the next item to consider.
So what does the record say about tissue to tissue ratio at 24 h for CCCC[C@@H](C(=O)N[C@@H](CC(=O)O)C(=O)N[C@@H](Cc1cccc2ccccc12)C(N)=O)N(C)C(=O)[C@H](Cc1c[nH]c2ccccc12)NC(=O)CCOCCOCCOCCOCCNC(=O)CC[C@@H](NC(=O)CCOCCOCCOCCOCCOCCNC(=O)CC[C@@H](NC(=O)[C@@H](CNC(=O)C[N+](C)(C)Cc1ccc([Si](F)(C(C)(C)C)C(C)(C)C)cc1)NC(=O)CN1CCN(CC(=O)O)CCN(CC(=O)O)CCN(CC(=O)O)CC1)C(=O)O)C(=O)O [[^nat/177Lu]Lu-DOTA-rhCCK-91, metal not drawn] ?
25.3

###

Recorded tissue uptake at 24 h by entry
assay: Biodistribution at 24 h p.i. in AR42J tumor-bearing CB17-SCID mice; assay type: in vivo; settings: mouse, pancreas, 100 pmol, n=4, mean ± SD, read-out: Biodistribution, Pancreas

1. CCCC[C@@H](C(=O)N[C@@H](CC(=O)O)C(=O)N[C@@H](Cc1cccc2ccccc12)C(N)=O)N(C)C(=O)[C@H](Cc1c[nH]c2ccccc12)NC(=O)CCOCCOCCOCCOCCNC(=O)CC[C@@H](NC(=O)CCOCCOCCOCCOCCOCCNC(=O)CC[C@@H](NC(=O)[C@@H](CNC(=O)C[N+](C)(C)Cc1ccc([Si](F)(C(C)(C)C)C(C)(C)C)cc1)NC(=O)CN1CCN(CC(=O)O)CCN(CC(=O)O)CCN(CC(=O)O)CC1)C(=O)O)C(=O)O [[^nat/177Lu]Lu-DOTA-rhCCK-91, metal not drawn] ... 0.9 %ID/g

Here is the next item to consider.
So what does the record say about tissue uptake at 24 h for CCCC[C@@H](C(=O)N[C@@H](CC(=O)O)C(=O)N[C@@H](Cc1cccc2ccccc12)C(N)=O)N(C)C(=O)[C@H](Cc1c[nH]c2ccccc12)NC(=O)CCOCCOCCOCCOCCNC(=O)CC[C@@H](NC(=O)CCOCCOCCOCCOCCOCCOCCOCCOCCNC(=O)CC[C@@H](NC(=O)[C@@H](CNC(=O)c1ccc([Si](F)(C(C)(C)C)C(C)(C)C)cc1)NC(=O)CN1CCN(CC(=O)O)CCN(CC(=O)O)CCN(CC(=O)O)CC1)C(=O)O)C(=O)O [[^nat/177Lu]Lu-DOTA-rhCCK-70, metal not drawn] ?
0.24 %ID/g

###

assay: Biodistribution at 24 h p.i. in AR42J tumor-bearing CB17-SCID mice; format: in vivo; conditions: mouse, kidney, 100 pmol, n=4, mean ± SD, read-out: Biodistribution, Kidney
quantity_name: tissue uptake at 24 h (%ID/g)
Numeric answer only, unit %ID/g assumed.

1) CCCC[C@@H](C(=O)N[C@@H](CC(=O)O)C(=O)N[C@@H](Cc1cccc2ccccc12)C(N)=O)N(C)C(=O)[C@H](Cc1c[nH]c2ccccc12)NC(=O)CCOCCOCCOCCOCCNC(=O)CC[C@@H](NC(=O)CCOCCOCCOCCOCCOCCOCCOCCOCCNC(=O)CC[C@@H](NC(=O)[C@@H](CNC(=O)c1ccc([Si](F)(C(C)(C)C)C(C)(C)C)cc1)NC(=O)CN1CCN(CC(=O)O)CCN(CC(=O)O)CCN(CC(=O)O)CC1)C(=O)O)C(=O)O [[^nat/177Lu]Lu-DOTA-rhCCK-70, metal not drawn] ... 8.4

Here is the next item to consider.
So what does the record say about tissue uptake at 24 h for CCCC[C@@H](C(=O)N[C@@H](CC(=O)O)C(=O)N[C@@H](Cc1cccc2ccccc12)C(N)=O)N(C)C(=O)[C@H](Cc1c[nH]c2ccccc12)NC(=O)CCOCCOCCOCCOCCNC(=O)CC[C@@H](NC(=O)CCOCCOCCOCCOCCOCCNC(=O)CC[C@@H](NC(=O)[C@@H](CNC(=O)C[N+](C)(C)Cc1ccc([Si](F)(C(C)(C)C)C(C)(C)C)cc1)NC(=O)CN1CCN(CC(=O)O)CCN(CC(=O)O)CCN(CC(=O)O)CC1)C(=O)O)C(=O)O [[^nat/177Lu]Lu-DOTA-rhCCK-91, metal not drawn] ?
6.6

###

Recorded tissue to tissue ratio at 24 h by entry
test: Biodistribution at 24 h p.i. in AR42J tumor-bearing CB17-SCID mice; format: in vivo; details: both sexes, CB17-SCID, mouse, tumor/lung, 100 pmol, total radioactivity, 100 pmol, n=4, Table S3, read-out: Tumor-to-background ratio, Lung
The response must contain the number and no unit.

1. CCCC[C@@H](C(=O)N[C@@H](CC(=O)O)C(=O)N[C@@H](Cc1cccc2ccccc12)C(N)=O)N(C)C(=O)[C@H](Cc1c[nH]c2ccccc12)NC(=O)CCOCCOCCOCCOCCNC(=O)CC[C@@H](NC(=O)CCOCCOCCOCCOCCOCCNC(=O)CC[C@@H](NC(=O)[C@@H](CNC(=O)C[N+](C)(C)Cc1ccc([Si](F)(C(C)(C)C)C(C)(C)C)cc1)NC(=O)CN1CCN(CC(=O)O)CCN(CC(=O)O)CCN(CC(=O)O)CC1)C(=O)O)C(=O)O [[^nat/177Lu]Lu-DOTA-rhCCK-91, metal not drawn] ... 29.3

Here is the next item to consider.
So what does the record say about tissue to tissue ratio at 24 h for CCCC[C@@H](C(=O)N[C@@H](CC(=O)O)C(=O)N[C@@H](Cc1cccc2ccccc12)C(N)=O)N(C)C(=O)[C@H](Cc1c[nH]c2ccccc12)NC(=O)CCOCCOCCOCCOCCNC(=O)CC[C@@H](NC(=O)CCOCCOCCOCCOCCOCCOCCOCCOCCNC(=O)CC[C@@H](NC(=O)[C@@H](CNC(=O)c1ccc([Si](F)(C(C)(C)C)C(C)(C)C)cc1)NC(=O)CN1CCN(CC(=O)O)CCN(CC(=O)O)CCN(CC(=O)O)CC1)C(=O)O)C(=O)O [[^nat/177Lu]Lu-DOTA-rhCCK-70, metal not drawn] ?
33.4

###

Recorded tissue to tissue ratio at 24 h by entry
assay: Biodistribution at 24 h p.i. in AR42J tumor-bearing CB17-SCID mice; type: in vivo; details: both sexes, CB17-SCID, mouse, tumor/bone, 100 pmol, total radioactivity, 100 pmol, n=4, Table S3, read-out: Tumor-to-background ratio, Bone

1. CCCC[C@@H](C(=O)N[C@@H](CC(=O)O)C(=O)N[C@@H](Cc1cccc2ccccc12)C(N)=O)N(C)C(=O)[C@H](Cc1c[nH]c2ccccc12)NC(=O)CCOCCOCCOCCOCCNC(=O)CC[C@@H](NC(=O)CCOCCOCCOCCOCCOCCOCCOCCOCCNC(=O)CC[C@@H](NC(=O)[C@@H](CNC(=O)c1ccc([Si](F)(C(C)(C)C)C(C)(C)C)cc1)NC(=O)CN1CCN(CC(=O)O)CCN(CC(=O)O)CCN(CC(=O)O)CC1)C(=O)O)C(=O)O [[^nat/177Lu]Lu-DOTA-rhCCK-70, metal not drawn] ... 9.48

Here is the next item to consider.
So what does the record say about tissue to tissue ratio at 24 h for CCCC[C@@H](C(=O)N[C@@H](CC(=O)O)C(=O)N[C@@H](Cc1cccc2ccccc12)C(N)=O)N(C)C(=O)[C@H](Cc1c[nH]c2ccccc12)NC(=O)CCOCCOCCOCCOCCNC(=O)CC[C@@H](NC(=O)CCOCCOCCOCCOCCOCCNC(=O)CC[C@@H](NC(=O)[C@@H](CNC(=O)C[N+](C)(C)Cc1ccc([Si](F)(C(C)(C)C)C(C)(C)C)cc1)NC(=O)CN1CCN(CC(=O)O)CCN(CC(=O)O)CCN(CC(=O)O)CC1)C(=O)O)C(=O)O [[^nat/177Lu]Lu-DOTA-rhCCK-91, metal not drawn] ?
11.8
